Data provenance is patent US20240425523A1.

testSystem: p-EGFR Del19/C797S (H1975-clone #23 cells) (Homo sapiens, UniProt P00533)
experiment: Cell p-EGFR inhibition assay, HTRF, H1975-clone#23 (DEL19/C797S) cells
Assay type: cell-based
setupConditions: 16 h treatment, maximum percentage of pEGFR inhibition
Property: Imax (%); scope: individual compounds
I only need the number, in %, no unit after it.

Cc1cc2cc(n1)-c1cnn(C)c1OC[C@H]1CCC(C1)CN1/C(=N/C2=O)Nc2ccc(N3CCN([C@@H]4CCN(c5ccc(OC6CCC(=O)NC6=O)cc5F)C[C@@H]4F)CC3)cc21 (some centres unmarked)    99.8
COC[C@H]1CN(c2cc3c(cc2C)N/C2=N\C(=O)c4cc(C)nc(c4)-c4c(C)nn(C)c4OC[C@H]4CC[C@H](C4)CN23)CCN1C1CCN(c2cc(F)c([C@H]3CCC(=O)NC3=O)c(F)c2)CC1    103.44
COC[C@@H]1CN(c2ccc3c(c2)N2CC4CC[C@H](COc5c(cnn5C)-c5cc(cc(C)n5)C(=O)/N=C/2N3)C4)CCN1CC1CN(c2cc(F)c([C@H]3CCC(=O)NC3=O)c(F)c2)C1    100.2

Query block: Return reported Imax (%) for target or system p-EGFR Del19/C797S (H1975-clone #23 cells) (Homo sapiens, UniProt P00533), item Cc1cc2cc(n1)-c1cnn(C)c1OC[C@H]1CCC(C1)CN1/C(=N/C2=O)Nc2ccc(N3CC4(CCN(C5CCN(c6cc(F)c([C@H]7CCC(=O)NC7=O)c(F)c6)CC5)CC4)C3)cc21 .
Result block: 101.9

Query block: Return reported Imax (%) for target or system p-EGFR Del19/C797S (H1975-clone #23 cells) (Homo sapiens, UniProt P00533), item COc1cc2c(cc1N1CCN(C3CCN(c4cc(F)c([C@H]5CCC(=O)NC5=O)c(F)c4)CC3)CC1)N1C[C@@H]3CC[C@H](COc4c(c(C)nn4C)-c4cc(cc(C)n4)C(=O)/N=C/1N2)C3 .
Result block: 100.06

###

testSystem: p-EGFR L858R (BaF3-L858R cells) (Homo sapiens, UniProt P00533, L858R)
experiment: Cell p-EGFR inhibition assay, HTRF, BaF3-L858R cells
setupConditions: 16 h treatment, pEGFR inhibition
measuredParameter: IC50 (nM)
I only need the number, in nM, no unit after it.

COC[C@H]1CN(c2ccc3c(c2)N2C[C@@H]4CC[C@H](COc5c(c(C)nn5C)-c5cc(cc(C)n5)C(=O)/N=C/2N3)C4)CCN1C1CCN(c2c(C)cc(C3CCC(=O)NC3=O)nc2C)CC1 (stereo partly shown) [Example 141]    7.7

Query block: Return reported IC50. Input compound: Cc1cc2cc(n1)-c1c(C)nn(C)c1OC[C@H]1CC[C@H](C1)CN1/C(=N/C2=O)Nc2ccc(N3CCN(CC4CN(c5cc(F)c([C@H]6CCC(=O)NC6=O)c(F)c5)C4)[C@H](C(F)F)C3)cc21 [Example 205]
Result block: 1.22

Query block: Return reported IC50. Input compound: COC[C@@H]1CN(c2ccc3c(c2)N2CC4CC[C@H](COc5c(cnn5C)-c5cc(cc(C)n5)C(=O)/N=C/2N3)C4)CCN1C1CCN(c2ccc(C3CCC(=O)NC3=O)nc2C)CC1 (stereo partly shown) [Example 73]
Result block: 10.2

Query block: Return reported IC50. Input compound: Cc1cc2cc(n1)-c1cnn(C)c1OC[C@H]1CCC(C1)CN1/C(=N/C2=O)Nc2ccc(N3CCN(CCc4cc(F)c(C5CCC(=O)NC5=O)nc4C)CC3)cc21 (stereo partly shown) [Example 78]
Result block: 16.9

Query block: Return reported IC50. Input compound: Cc1cc2cc(n1)-c1c(C)nn(C)c1OC[C@H]1CC[C@H](C1)CN1/C(=N/C2=O)Nc2ccc(N3CC(N(C)C4CCN(c5cc(F)c([C@H]6CCC(=O)NC6=O)c(F)c5)CC4)C3)cc21 [Example 153]
Result block: 11.1

Query block: Return reported IC50. Input compound: Cc1cc2cc(n1)-c1c(C)nn(C)c1OC[C@H]1CC[C@H](C1)CN1/C(=N/C2=O)Nc2ccc(N3CCN(C4CCN(c5cc(F)c([C@H]6CCC(=O)NC6=O)c(F)c5)CC4)C(=O)C3)cc21 [Example 164]
Result block: 1.85

Query block: Return reported IC50. Input compound: Cc1cc2cc(n1)-c1cnn(C)c1OC[C@H]1CCC(C1)CN1/C(=N/C2=O)Nc2ccc(N3CCN([C@H]4CCN(c5ccc(C6CCC(=O)NC6=O)nc5C)C[C@@H]4F)CC3)cc21 (stereo partly shown) [Example 76]
Result block: 7.8

Query block: Return reported IC50. Input compound: Cc1cc2cc(n1)-c1c(C)nn(C)c1OC[C@H]1CC[C@H](C1)CN1/C(=N/C2=O)Nc2ccc(N3CCN([C@H]4CCN(c5cnc(C6CCC(=O)NC6=O)cc5C)CC4(F)F)CC3)cc21 (stereo partly shown) [Example 101]
Result block: 3.5
